Please respond with reported inhibition at 1 µM for every item in the list.
- Test system: MKN-45 cells
- MEASUREMENT DESCRIPTION: Inhibition of MKN-45 proliferation (MTT)
- Assay type: cell-based, human
- CONDITION NOTES: Homo sapiens, MKN-45, MKN-45 proliferation, 1 μM

inhibition at 1 µM measured on c1cnc2ccc(Cn3nnc4ccc(-c5ccc6c(c5)OCO6)nc43)cc2c1 = < 25%

inhibition at 1 µM measured on O=C(NCCC(=O)N1CCCC1)c1ccc(-c2ccc3nnn(Cc4ccc5ncccc5c4)c3n2)cc1F = 50 to 75%

inhibition at 1 µM measured on CNC(=O)c1ccc(-c2ccc3nnn(Cc4c(F)ccc(F)c4Cl)c3n2)cc1F = < 25%

inhibition at 1 µM measured on Nc1ccc(-c2ccc3nnn(Cc4ccc5ncccc5c4)c3n2)cn1 = < 25%

inhibition at 1 µM measured on COc1ccc(-c2ccc3nnn(Cc4ccc5ncccc5c4)c3n2)cc1F = 25 to 50%

inhibition at 1 µM measured on O=C(NCCC(=O)N1CCOCC1)c1ccc(-c2ccc3nnn(Cc4ccc5ncccc5c4)c3n2)cc1F = 25 to 50%

inhibition at 1 µM measured on CN(C)CCCOc1ccc(-c2ccc3nnn(Cc4ccc5ncccc5c4)c3n2)cc1F = 75 to 100%

inhibition at 1 µM measured on CON(C)C(=O)c1ccc(-c2ccc3nnn(Cc4ccc5ncccc5c4)c3n2)cc1F.Cl [Ex 59, hydrochloride] = 50 to 75%

inhibition at 1 µM measured on COc1ccc(-c2ccc3nnn(Cc4ccc5ncccc5c4)c3n2)cc1OC = < 25%

---

- EXPERIMENTAL SYSTEM: c-Met (Homo sapiens)
- MEASUREMENT DESCRIPTION: Inhibition of c-Met kinase phosphorylation in NCI-H441 cells (cell based ELISA)
- Set-up: endogenous in cells; host or cells: NCI-H441
- CONDITION NOTES: 1 h
pIC50: −log10 of the molar value.
PROPERTY MEASURED: pIC50

pIC50 measured on NC(=O)c1ccc(-c2ccc3nnn(Cc4cc5cccnc5cc4F)c3n2)cc1F = ≥ 8.00

pIC50 measured on CNC(=O)c1ccc(-c2ccc3nnn(Cc4ccc5ncccc5c4)c3n2)cc1F = 7.30 to 8.00

pIC50 measured on CCNC(=O)c1ccc(-c2ccc3nnn(Cc4ccc5ncccc5c4)c3n2)cc1Cl = ≥ 8.00

pIC50 measured on OCCn1cc(-c2ccc3nnn(Cc4ccc5ncccc5c4)c3n2)cn1 = 7.00 to 7.30

pIC50 measured on O=C(Nc1nc[nH]n1)c1ccc(-c2ccc3nnn(Cc4ccc5ncccc5c4)c3n2)cc1F = ≥ 8.00

pIC50 measured on NC(=O)c1ccc(-c2ccc3nnn(Cc4ccc5ncccc5c4)c3n2)cc1Cl = ≥ 8.00

pIC50 measured on Cl.NC(=O)c1c(F)cc(-c2ccc3nnn(Cc4ccc5ncccc5c4)c3n2)cc1F [Ex 139, hydrochloride] = ≥ 8.00

pIC50 measured on NC(=O)c1ccc(-c2ccc3nnn(Cc4ccc5ncccc5c4)c3n2)cc1F = 7.30 to 8.00

pIC50 measured on NC(=O)c1ccc(-c2ccc3nnn(Cc4cc5cccnc5cc4F)c3n2)cc1Cl = ≥ 8.00

---

Please respond with reported pIC50 for every item in the list.
- EXPERIMENTAL SYSTEM: Met kinase (Homo sapiens, UniProt P08581)
- Sequence (P08581 25-1390): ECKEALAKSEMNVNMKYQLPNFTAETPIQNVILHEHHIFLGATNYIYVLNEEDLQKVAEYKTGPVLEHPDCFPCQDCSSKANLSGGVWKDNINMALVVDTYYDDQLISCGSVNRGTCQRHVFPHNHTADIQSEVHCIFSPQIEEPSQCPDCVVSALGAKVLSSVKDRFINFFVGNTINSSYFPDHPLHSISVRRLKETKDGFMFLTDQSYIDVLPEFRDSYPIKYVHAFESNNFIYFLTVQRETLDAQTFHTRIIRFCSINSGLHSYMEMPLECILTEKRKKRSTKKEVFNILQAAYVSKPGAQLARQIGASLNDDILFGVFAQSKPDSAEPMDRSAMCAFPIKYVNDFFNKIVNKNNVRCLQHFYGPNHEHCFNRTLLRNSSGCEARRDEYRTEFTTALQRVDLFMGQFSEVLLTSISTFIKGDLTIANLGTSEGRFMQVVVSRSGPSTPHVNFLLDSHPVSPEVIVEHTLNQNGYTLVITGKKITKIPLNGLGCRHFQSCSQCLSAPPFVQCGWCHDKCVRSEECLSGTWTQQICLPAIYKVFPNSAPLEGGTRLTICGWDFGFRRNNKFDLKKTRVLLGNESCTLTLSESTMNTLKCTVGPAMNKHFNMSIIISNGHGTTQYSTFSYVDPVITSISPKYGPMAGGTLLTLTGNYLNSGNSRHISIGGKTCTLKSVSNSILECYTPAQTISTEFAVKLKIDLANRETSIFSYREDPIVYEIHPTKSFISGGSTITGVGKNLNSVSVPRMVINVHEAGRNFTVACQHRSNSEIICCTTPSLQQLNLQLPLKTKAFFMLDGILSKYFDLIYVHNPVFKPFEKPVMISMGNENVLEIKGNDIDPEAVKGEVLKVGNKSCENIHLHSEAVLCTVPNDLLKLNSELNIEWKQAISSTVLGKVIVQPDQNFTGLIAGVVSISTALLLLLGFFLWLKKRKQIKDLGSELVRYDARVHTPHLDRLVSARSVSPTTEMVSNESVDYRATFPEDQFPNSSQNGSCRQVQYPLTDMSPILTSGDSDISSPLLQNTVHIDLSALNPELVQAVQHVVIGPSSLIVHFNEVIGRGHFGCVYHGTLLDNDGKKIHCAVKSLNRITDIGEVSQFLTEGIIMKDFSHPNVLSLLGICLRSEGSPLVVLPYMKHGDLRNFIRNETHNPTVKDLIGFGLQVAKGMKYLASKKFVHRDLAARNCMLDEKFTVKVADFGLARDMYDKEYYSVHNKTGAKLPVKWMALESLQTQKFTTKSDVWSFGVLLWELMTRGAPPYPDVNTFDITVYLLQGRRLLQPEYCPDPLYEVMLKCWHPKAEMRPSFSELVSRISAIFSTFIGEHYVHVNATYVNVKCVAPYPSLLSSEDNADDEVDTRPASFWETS
- MEASUREMENT DESCRIPTION: MET kinase assay (colorimetric determination of c-Met kinase activity, HTScan Met Kinase Assay Kit)
- Assay type: biochemical
- Design: purchased Cell Signalling Technology, Beverly, Mass
- CONDITION NOTES: c-Met kinase
pIC50: −log10 of the molar value.

pIC50 measured on NC(=O)c1ccc(-c2ccc3nnn(Cc4ccc5ncccc5c4)c3n2)cc1Cl = ≥ 7.30

pIC50 measured on NC(=O)c1ccc(-c2ccc3nnn(Cc4cc5cccnc5cc4F)c3n2)cc1Cl = ≥ 7.30

pIC50 measured on O=C(O)c1ccc(-c2ccc3nnn(Cc4ccc5ncccc5c4)c3n2)cc1F = 7.00 to 7.30

pIC50 measured on NC(=O)c1ccc(-c2ccc3nnn(Cc4ccc5ncccc5c4)c3n2)cc1 = 6.00 to 6.60

pIC50 measured on NC(=O)c1ccc(-c2ccc3nnn(Cc4ccc5ncccc5c4)c3n2)cc1F = 7.00 to 7.30

---

Please respond with reported inhibition at 1 µM for every item in the list.
- System: MKN-45 cells
- MEASUREMENT DESCRIPTION: Inhibition of MKN-45 proliferation (MTT)
- Assay type: cell-based, human
- CONDITION NOTES: Homo sapiens, MKN-45, MKN-45 proliferation, 1 μM

inhibition at 1 µM measured on CCCCNC(=O)c1ccc(-c2ccc3nnn(Cc4ccc5ncccc5c4)c3n2)cc1F = 50 to 75%

inhibition at 1 µM measured on NC(=O)c1cc(-c2ccc3nnn(Cc4ccc5ncccc5c4)c3n2)ccc1Cl = 25 to 50%

inhibition at 1 µM measured on O=C(NC1CCCC1)c1ccc(-c2ccc3nnn(Cc4ccc5ncccc5c4)c3n2)cc1F = 50 to 75%

inhibition at 1 µM measured on Cc1ccc(-c2ccc3nnn(Cc4ccc5ncccc5c4)c3n2)s1 = 50 to 75%

inhibition at 1 µM measured on CCCNC(=O)c1ccc(-c2ccc3nnn(Cc4ccc5ncccc5c4)c3n2)cc1F = < 25%

inhibition at 1 µM measured on O=C(NCc1ccco1)c1ccc(-c2ccc3nnn(Cc4ccc5ncccc5c4)c3n2)cc1F = < 25%

inhibition at 1 µM measured on O=C(O)c1ccc(-c2ccc3nnn(Cc4c(F)ccc(F)c4Cl)c3n2)cc1F = < 25%

inhibition at 1 µM measured on c1cnc2ccc(Cn3nnc4ccc(-c5ccc6c(c5)CCO6)nc43)cc2c1 = < 25%

inhibition at 1 µM measured on FC(F)Oc1cccc(-c2ccc3nnn(Cc4ccc5ncccc5c4)c3n2)c1 = < 25%

inhibition at 1 µM measured on C=CCNC(=O)c1ccc(-c2ccc3nnn(Cc4ccc5ncccc5c4)c3n2)cc1F = 75 to 100%

inhibition at 1 µM measured on COCCOc1ccc(-c2ccc3nnn(Cc4ccc5ncccc5c4)c3n2)cc1F = 75 to 100%

inhibition at 1 µM measured on O=Cc1cc(-c2ccc3nnn(Cc4ccc5ncccc5c4)c3n2)cs1 = 25 to 50%

inhibition at 1 µM measured on Fc1cc(-c2ccc3nnn(Cc4ccc5ncccc5c4)c3n2)ccc1OCC1CC1 = 50 to 75%

inhibition at 1 µM measured on O=C(NCCCN1CCCCC1)c1ccc(-c2ccc3nnn(Cc4ccc5ncccc5c4)c3n2)cc1F = 50 to 75%

inhibition at 1 µM measured on c1cnc2ccc(Cn3nnc4ccc(-c5ccc(N6CCCCC6)nc5)nc43)cc2c1 = < 25%

inhibition at 1 µM measured on Nc1cccc(-c2ccc3nnn(Cc4ccc5ncccc5c4)c3n2)c1 = 25 to 50%

inhibition at 1 µM measured on Fc1ccccc1-c1ccc2nnn(Cc3ccc4ncccc4c3)c2n1 = < 25%

inhibition at 1 µM measured on CN(C)C(=O)CNC(=O)c1ccc(-c2ccc3nnn(Cc4ccc5ncccc5c4)c3n2)cc1F = 50 to 75%

inhibition at 1 µM measured on CCNC(=O)Nc1ccc(-c2ccc3nnn(Cc4ccc5ncccc5c4)c3n2)cc1 = 75 to 100%

inhibition at 1 µM measured on OCCn1cc(-c2ccc3ncn(Cc4ccc5ncccc5c4)c3n2)cn1 = < 25%

inhibition at 1 µM measured on O=C(Nc1ccncc1)c1ccc(-c2ccc3nnn(Cc4ccc5ncccc5c4)c3n2)cc1F = 50 to 75%

inhibition at 1 µM measured on CC(C)(c1ccc2ncccc2c1)n1nnc2ccc(-c3ccc(C(N)=O)c(F)c3)nc21 = < 25%

inhibition at 1 µM measured on COc1ccc(-c2ccc3nnn(Cc4ccc5ncccc5c4)c3n2)cc1 = 25 to 50%

inhibition at 1 µM measured on O=C(NCCC(=O)N1CCCCC1)c1ccc(-c2ccc3nnn(Cc4ccc5ncccc5c4)c3n2)cc1F = 75 to 100%

inhibition at 1 µM measured on CC(C)CNC(=O)c1ccc(-c2ccc3nnn(Cc4ccc5ncccc5c4)c3n2)cc1F = 25 to 50%

inhibition at 1 µM measured on CCCNC(=O)c1ccc(-c2ccc3nnn(C(C)(C)c4ccc5ncccc5c4)c3n2)cc1F = < 25%

inhibition at 1 µM measured on O=C(NCC1CC1)c1ccc(-c2ccc3nnn(Cc4ccc5ncccc5c4)c3n2)cc1F = 75 to 100%

inhibition at 1 µM measured on O=C(Nc1nccs1)c1ccc(-c2ccc3nnn(Cc4ccc5ncccc5c4)c3n2)cc1F = 75 to 100%

inhibition at 1 µM measured on CN(C)C(=O)c1ccc(-c2ccc3nnn(Cc4ccc5ncccc5c4)c3n2)cc1F = 25 to 50%

inhibition at 1 µM measured on O=C(NO)c1ccc(-c2ccc3nnn(Cc4ccc5ncccc5c4)c3n2)cc1F = 75 to 100%

---

- Test system: MKN-45 cells
- MEASUREMENT DESCRIPTION: Inhibition of MKN-45 proliferation (MTT)
- Assay type: cell-based, human
- CONDITION NOTES: Homo sapiens, MKN-45, MKN-45 proliferation, 1 μM
Structures can show the parent of a compound that is named as a salt.
Please respond with reported inhibition at 1 µM for every item in the list.

inhibition at 1 µM measured on CN(C)CCCNC(=O)c1ccc(-c2ccc3nnn(Cc4ccc5ncccc5c4)c3n2)cc1F [Ex 121, dihydrochloride] = < 25%

inhibition at 1 µM measured on CCNC(=O)c1ccc(-c2ccc3nnn(Cc4ccc5ncccc5c4)c3n2)cc1Cl [Ex 225, hydrochloride] = 50 to 75%

inhibition at 1 µM measured on CC(=O)Nc1ccc(-c2ccc3nnn(Cc4ccc5ncccc5c4)c3n2)cc1 = 50 to 75%

inhibition at 1 µM measured on CC(C)(c1ccc2ncccc2c1)n1nnc2ccc(-c3cn[nH]c3)nc21 = < 25%

inhibition at 1 µM measured on O=C(Nc1nc[nH]n1)c1ccc(-c2ccc3nnn(Cc4ccc5ncccc5c4)c3n2)cc1Cl = < 25%

inhibition at 1 µM measured on Fc1cccc(-c2ccc3nnn(Cc4ccc5ncccc5c4)c3n2)c1 = < 25%

inhibition at 1 µM measured on FC(F)(F)Oc1cccc(-c2ccc3nnn(Cc4ccc5ncccc5c4)c3n2)c1 = < 25%

inhibition at 1 µM measured on NC(=O)c1ccc(-c2ccc3nnn(Cc4ccc5ncccc5c4)c3n2)cc1F [Ex 74, hydrochloride] = 50 to 75%

inhibition at 1 µM measured on O=C(NCC(F)(F)F)c1ccc(-c2ccc3nnn(Cc4ccc5ncccc5c4)c3n2)cc1F = 25 to 50%

inhibition at 1 µM measured on Cc1n[nH]cc1-c1ccc2nnn(Cc3ccc4ncccc4c3)c2n1 = < 25%

inhibition at 1 µM measured on Cl.NC(=O)c1c(F)cc(-c2ccc3nnn(Cc4ccc5ncccc5c4)c3n2)cc1F [Ex 139, hydrochloride] = < 25%

inhibition at 1 µM measured on CC(C)(c1ccc2ncccc2c1)n1nnc2ccc(-c3ccc(C(=O)NC4CC4)c(F)c3)nc21 = 75 to 100%

inhibition at 1 µM measured on Fc1cc(-c2ccc3nnn(Cc4ccc5ncccc5c4)c3n2)ccc1OC1CCOCC1 = 75 to 100%

inhibition at 1 µM measured on Cl.Fc1ccc(F)c(Cn2nnc3ccc(-c4cnn(C5CCNCC5)c4)nc32)c1Cl [Ex 167, hydrochloride] = 25 to 50%

inhibition at 1 µM measured on O=C(O)CNC(=O)c1ccc(-c2ccc3nnn(Cc4ccc5ncccc5c4)c3n2)cc1F = < 25%

inhibition at 1 µM measured on Cc1csc(-c2ccc3nnn(Cc4ccc5ncccc5c4)c3n2)c1 = 50 to 75%

inhibition at 1 µM measured on Nc1ncc(-c2ccc3nnn(Cc4ccc5ncccc5c4)c3n2)cn1 = 25 to 50%

inhibition at 1 µM measured on Oc1cccc(-c2ccc3nnn(Cc4ccc5ncccc5c4)c3n2)c1 = < 25%

inhibition at 1 µM measured on CCNC(=O)c1ccc(-c2ccc3nnn(Cc4ccc5c(ccc[n+]5[O-])c4)c3n2)cc1Cl = < 25%

inhibition at 1 µM measured on CC(C)Oc1ccc(-c2ccc3nnn(Cc4ccc5ncccc5c4)c3n2)cc1F = < 25%

// data source = patent US10590129B2
